assay: AUC (0 to last) in rat at 300 mg/kg measured on day 8; assay type: ADME, organism-based; set-up: dose 300 mg/kg, time 0 - last; settings: in vivo
Readout Label: AUC(0-t)
Respond with a number, then the unit of measure.

## Task Form field: reported AUC(0-t) of Cc1cc(SCc2sc(-c3ccc(C(F)(F)F)cc3)nc2C)ccc1OCC(=O)O
## Result 2270 µg·h/mL

----------
experiment: Thermodynamic solubility of the compound; type: physicochemical; conditions: read-out: Therm_solubility
Readout Label: solubility thermodynamic (µM)
Only the number, expressed in µM, is required.

## Task Given the entry Cc1cc(SCc2sc(-c3ccc(C(F)(F)F)cc3)nc2C)ccc1OCC(=O)O [GW501516] , report its measured solubility thermodynamic.
## Result 250

----------
test: AUC (0 to last) in rat at 300 mg/kg; type: ADME, organism-based; parameters: dose 300 mg/kg, time 0 - last; details: in vivo
Readout Label: AUC(0-t) (µg·h/mL)
Field format: number, assumed µg·h/mL, no unit text.

## Task So what's the measured AUC(0-t) for this one? C/C(=C\COc1ccccc1CN(C)C(=O)c1ccc(-c2ccco2)cc1)CCC(=O)O
## Result 201

----------
assay: AUC (0 to last) in rat at 30 mg/kg; assay type: ADME, organism-based; parameters: dose 30 mg/kg, time 0 - last; settings: in vivo
Readout Label: AUC(0-t) (µg·h/mL)
Write the value in µg·h/mL as a bare number.

## Task Requested field: AUC(0-t). Item: Cc1cc(SCc2sc(-c3ccc(C(F)(F)F)cc3)nc2C)ccc1OCC(=O)O
## Result 72

----------
test: AUC (0 to last) in rat at 100 mg/kg; format: ADME, organism-based; set-up: dose 100 mg/kg, time 0 - last; conditions: in vivo
Readout Label: AUC(0-t) (µg·h/mL)
State the answer as a number, implicitly in µg·h/mL.

• C/C(=C\COc1ccccc1CN(C)C(=O)c1ccc(-c2ccco2)cc1)CCC(=O)O = 48

Shift focus to the following entry.
## Task Given the molecule Cc1cc(SCc2sc(-c3ccc(C(F)(F)F)cc3)nc2C)ccc1OCC(=O)O [GW501516] , what is its reported AUC(0-t)?
## Result 613
